Recorded pIC50 for the following compounds
Biological target: SPX^XPR1 (recombinant His-tagged SPX domain of human XPR1) (Homo sapiens, UniProt Q9UBH6)
Construct: SPX domain only, N-terminal cytosolic part; residue borders not given, cloning primers encode start MKFAEHL and end PPLGAAQ-stop; His tag (modified pHisTrcA), HisTrap purified
Sequence (Q9UBH6 1-227): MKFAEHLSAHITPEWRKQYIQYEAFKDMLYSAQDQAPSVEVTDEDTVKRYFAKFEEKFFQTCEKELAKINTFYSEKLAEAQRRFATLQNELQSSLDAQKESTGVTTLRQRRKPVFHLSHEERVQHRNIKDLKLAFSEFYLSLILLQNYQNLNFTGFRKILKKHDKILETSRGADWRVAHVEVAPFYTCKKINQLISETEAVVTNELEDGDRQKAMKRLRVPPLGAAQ
Experiment: competition with [3H]IP6, PEG precipitation
pIC50: −log10 of the molar value.

Identify pIC50 associated with the compound O=P(O)(O)O[C@H]1[C@H](OP(=O)(O)O)[C@@H](OP(=O)(O)O)[C@H](OP(=O)(O)O)[C@@H](OP(=O)(O)O)[C@H]1OP(=O)(O)O [IP6, inositol hexakisphosphate] ~5.01

Identify pIC50 associated with the compound O=P(O)(O)O[C@@H]1[C@@H](OP(=O)(O)O)[C@H](OP(=O)(O)O)[C@H](O)[C@H](OP(=O)(O)O)[C@H]1OP(=O)(O)O 4.55

Identify pIC50 associated with the compound O=P(O)(O)O[C@@H]1[C@@H](OP(=O)(O)O)[C@@H](OP(=O)(O)O)[C@@H](OP(=O)(O)OP(=O)(O)O)[C@H](OP(=O)(O)O)[C@H]1OP(=O)(O)O ~5.08

Identify pIC50 associated with the compound O=P(O)(O)O[C@H]1[C@@H](OP(=O)(O)O)[C@H](OP(=O)(O)O)[C@@H](OP(=O)(O)OP(=O)(O)O)[C@H](OP(=O)(O)O)[C@H]1OP(=O)(O)O [5-IP7, 5-diphosphoinositol pentakisphosphate] ~5.38
